target: Beta-3 Adrenergic Receptor (Homo sapiens (Human)); assay: HTRF cAMP antagonist assay (IC50 determination); details: CHO-K1 cells stably expressing recombinant receptor; antagonism of isoproterenol at EC90; cAMP readout
# label = criterion met if IC50 < 40 nM else criterion not met

A selection of reference data follows.
CN1CCOc2ncc(S(=O)(=O)N3CCC4(CC3)C[C@@H](NC[C@H](O)COc3cccc(S(=O)(=O)C(F)(F)CO)c3)CO4)cc21 [Compound 156]; criterion met
C=CS(=O)(=O)c1cccc(OC[C@@H](O)CN[C@H]2COC3(CCN(S(=O)(=O)c4cnc5ccccc5c4)CC3)C2)c1 [Compound 92]; criterion met
O=S(=O)(CC1CC1)c1cccc(OC[C@@H](O)CN[C@H]2COC3(CCN(S(=O)(=O)c4ccc5ncccc5c4)CC3)C2)c1 [Compound 117]; criterion not met
Cc1ccc2c(O)c(S(=O)(=O)N3CCC4(CC3)C[C@@H](NC[C@H](O)COc3cccc(S(=O)(=O)C5CC5)c3)CO4)cnc2c1 [Compound 330]; criterion not met

Continue with the compound presented below.
Query string: In plain terms, does CCn1cc(S(=O)(=O)N2CCC3(CC2)C[C@@H](NC[C@H](O)COc2cccc(S(=O)(=O)C4CC4)c2)CO3)c(=O)c2cc(C)ccc21 [Compound 317] come in under 40 nM for IC50?
Result string: criterion not met

====

biological target: Beta-3 Adrenergic Receptor (Homo sapiens (Human), UniProt P13945); assay: HTRF cAMP antagonist assay (IC50 determination); conditions: CHO-K1 cells stably expressing recombinant receptor; antagonism of isoproterenol at EC90; cAMP readout
Sequence (P13945 whole entry, species assumed): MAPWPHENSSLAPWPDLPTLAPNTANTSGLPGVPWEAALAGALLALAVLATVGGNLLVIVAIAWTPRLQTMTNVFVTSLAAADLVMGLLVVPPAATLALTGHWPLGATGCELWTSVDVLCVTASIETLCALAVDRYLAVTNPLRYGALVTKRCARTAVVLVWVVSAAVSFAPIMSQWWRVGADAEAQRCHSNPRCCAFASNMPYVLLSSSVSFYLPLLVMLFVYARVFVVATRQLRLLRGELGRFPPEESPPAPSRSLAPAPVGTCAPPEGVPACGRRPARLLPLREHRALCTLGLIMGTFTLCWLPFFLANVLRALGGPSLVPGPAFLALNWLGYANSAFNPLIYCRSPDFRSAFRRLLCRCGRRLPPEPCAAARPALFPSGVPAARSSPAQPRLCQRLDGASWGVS
endpointLabel: IC50 (nM)
Express your answer in nM, writing the number without its unit.

Example entries and their recorded answers appear below.
O=S(=O)(CCO)c1cc(F)cc(OC[C@@H](O)CN[C@H]2COC3(CCN(S(=O)(=O)c4ccc5ncccc5c4)CC3)C2)c1; 224
NCCc1ccc(-c2cccc(S(=O)(=O)N3CCC4(CC3)C[C@@H](NC[C@H](O)COc3cccc(S(=O)(=O)C(F)(F)CO)c3)CO4)c2)cc1; 18.6
NC1(c2ccc(-c3cc(S(=O)(=O)N4CCC5(CC4)C[C@@H](NC[C@H](O)COc4cccc(S(=O)(=O)C6(CO)CC6)c4)CO5)ccc3F)cc2)CC1; 28.4
CCn1ncc(S(=O)(=O)N2CCC3(CC2)CC(NC[C@H](O)COc2cccc(S(C)(=O)=O)c2)CO3)c1C (stereo partly drawn); 109
CNCc1ccc(-c2cccc(S(=O)(=O)N3CCC4(CC3)CC(NC[C@H](O)COc3cccc(S(C)(=O)=O)c3)CO4)c2)cc1 (stereo partly drawn); 41.9
COc1ccc(S(=O)(=O)N2CCC3(CC2)C[C@H](NC[C@H](O)COc2cccc(S(=O)(=O)C4CC4)c2)CO3)cc1-c1ccc(C2(N)CC2)cc1; 29.1
CS(=O)(=O)c1cccc(OC[C@@H](O)CNC2COC3(CCN(C(=O)c4cc5ccccc5[nH]4)CC3)C2)c1 (stereo partly drawn); 711
CC(C)(C)NCc1ccc(-c2cccc(S(=O)(=O)N3CCC4(CC3)C[C@@H](NC[C@H](O)COc3cccc(S(=O)(=O)C5(CO)CC5)c3)CO4)c2)cc1; 982

Query string: I'd like to know its IC50. The compound in question is NC1(c2ccc(-c3cc(S(=O)(=O)N4CCC5(CC4)C[C@H](NC[C@H](O)COc4cccc(S(=O)(=O)C6(CO)CC6)c4)CO5)ccc3F)cc2)CC1
Result string: 21.6

Query string: // IC50 lookup, key: O=S(=O)(CCO)c1cccc(OC[C@@H](O)CN[C@@H]2COC3(CCN(S(=O)(=O)c4ccc5ccccc5c4)CC3)C2)c1
Result string: 31.2

Query string: Requested read-out: IC50. Entry: CC(C)Oc1ccc(-c2ccc(CN)cc2)cc1S(=O)(=O)N1CCC2(CC1)C[C@@H](NC[C@H](O)COc1cccc(S(=O)(=O)C3CC3)c1)CO2
Result string: 25

Query string: Recorded IC50 of CCn1cc(S(=O)(=O)N2CCC3(CC2)C[C@@H](NC[C@H](O)COc2cccc(S(=O)(=O)C4CC4)c2)CO3)c(=O)c2cc(F)ccc21 , please.
Result string: 270

====

biological target: Beta-3 Adrenergic Receptor (Homo sapiens (Human), UniProt P13945); assay: HTRF cAMP antagonist assay (IC50 determination); details: CHO-K1 cells stably expressing recombinant receptor; antagonism of isoproterenol at EC90; cAMP readout
So basically, if IC50 comes in under 40 nM it's Criterion met, and if it's 40 nM or more it's Criterion not met.

O=S(=O)(c1cccc(OC[C@@H](O)CN[C@H]2COC3(CCN(S(=O)(=O)c4cnc5c(c4)OCCO5)CC3)C2)c1)C1CC1 [Compound 289]; Criterion not met
NCCCNCc1ccc(-c2cccc(S(=O)(=O)N3CCC4(CC3)C[C@@H](NC[C@H](O)COc3cccc(S(=O)(=O)C5(CO)CC5)c3)CO4)c2)cc1 [Compound 271]; Criterion not met
CS(=O)(=O)c1cccc(OC[C@@H](O)CNC2COC3(CCN(S(=O)(=O)c4ccc5c(c4)CCO5)CC3)C2)c1 (stereo partly drawn) [Compound 74]; Criterion met
O=S(=O)(CC1CC1)c1cccc(OC[C@@H](O)CNC2COC3(CCN(S(=O)(=O)c4ccc5ccccc5c4)CC3)C2)c1 (stereo partly drawn) [Compound 7]; Criterion met
CS(=O)(=O)c1cccc(OC[C@@H](O)CN[C@H]2COC3(CCN(S(=O)(=O)c4cnc5ccccc5c4)CC3)C2)c1 [Compound 118]; Criterion met
NC(=O)CCS(=O)(=O)c1cccc(OC[C@@H](O)CN[C@H]2COC3(CCN(S(=O)(=O)c4cnc5ccccc5c4)CC3)C2)c1 [Compound 142]; Criterion not met
CC(C)(CO)S(=O)(=O)c1cccc(OC[C@@H](O)CN[C@H]2COC3(CCN(S(=O)(=O)c4cnc5ccccc5c4)CC3)C2)c1 [Compound 106]; Criterion met
CN1CCOc2ncc(S(=O)(=O)N3CCC4(CC3)C[C@@H](NC[C@H](O)COc3cccc(S(=O)(=O)CC(N)=O)c3)CO4)cc21 [Compound 159]; Criterion not met
CCOc1ccc(-c2ccc(C3(N)CC3)cc2)cc1S(=O)(=O)N1CCC2(CC1)C[C@H](NC[C@H](O)COc1cccc(S(=O)(=O)C3(CO)CC3)c1)CO2 [Compound 188]; Criterion met
O=S(=O)(c1ccc2ncccc2c1)N1CCC2(CC1)C[C@@H](NC[C@H](O)COc1cccc(S(=O)(=O)C(F)(F)CO)c1)CO2 [Compound 148]; Criterion met

Query string: In the record for O=S(=O)(CCO)c1cccc(OC[C@@H](O)CN[C@H]2COC3(CCN(S(=O)(=O)c4ccc(-c5cccnc5)cc4)CC3)C2)c1 [Compound 99] , is IC50 less than 40 nM?
Result string: Criterion not met

Query string: Please state whether IC50 is below 40 nM for O=S(=O)(c1cnc(Cl)c(Br)c1)N1CCC2(CC1)C[C@@H](NC[C@H](O)COc1cccc(S(=O)(=O)C3(CO)CC3)c1)CO2 [Compound 221]
Result string: Criterion met

====

Molecular target: UniProtKB P13945
Experiment: HTRF cAMP antagonist assay (IC50 determination)
Conditions: CHO-K1 cells stably expressing recombinant receptor; antagonism of isoproterenol at EC90; cAMP readout
Description: HTRF cAMP assays were performed according to manufacturer's instructions (Cisbio, cAMP Dynamic 2 Assay Kit; #62AM4PEJ). CHO-K1 cells stably expressing recombinant receptor were harvested and suspended in warm PBS to make a 300,000 cells/mL stock. […] Compounds were dissolved and serially diluted (5-fold) in DMSO to generate a 10-point dose response stock. […] The EC90 for isoproterenol, a beta-adrenergic agonist, was determined in separate experiments using standard methods to measure agonist potencies. […]
Criterion: IC50 strictly under 30 nM. Met: true (1). Not met: false (0).

CCOc1ccc(-c2ccc(CN)cc2)cc1S(=O)(=O)N1CCC2(CC1)C[C@H](NC[C@H](O)COc1cccc(S(C)(=O)=O)c1F)CO2 [Compound 209]; true (1)
CS(=O)(=O)c1cccc(OC[C@@H](O)CNC2COC3(CCN(S(=O)(=O)c4ccc5[nH]ccc5c4)CC3)C2)c1 (stereo partly shown) [Compound 62]; true (1)

Query string: Could you please tell me whether IC50 recorded for CCn1cc(S(=O)(=O)N2CCC3(CC2)C[C@@H](NC[C@H](O)COc2cccc(S(=O)(=O)C(C)F)c2)CO3)c(=O)c2ccccc21 (stereo partly shown) [Compound 299] is less than 30 nM?
Result string: false (0)

Query string: Please indicate whether the reported IC50 of CC(C)(CO)S(=O)(=O)c1cccc(OC[C@@H](O)CN[C@H]2COC3(CCN(S(=O)(=O)c4ccc5ncccc5c4)CC3)C2)c1 [Compound 109] is strictly below 30 nM.
Result string: false (0)
